Quick record: log10 Ki, GST-hERα (ligand binding domain) (Homo sapiens, UniProt P03372).
In our notation, the value equals log10 of Ki in nM.

Please review the following examples before continuing.
Smiles String	log10 Ki
Cc1cc(O)ccc1-c1cc(-c2ccccc2)cc(N(C)Cc2cccc3ccccc23)n1	2.65
Cc1cc(O)ccc1-c1cc(-c2ccccc2)cc(N(C)CCc2ccccc2)n1	2.20
Cc1cc(O)ccc1-c1cc(-c2ccccc2)cc(N2CCC(Cc3ccccc3)CC2)n1	1.30
CCCCN(C)c1cc(-c2ccccc2)cc(-c2cccc(O)c2)n1	2.82

GET /values?readout=log10 Ki&system=GST-hERα (ligand binding domain) (Homo sapiens, UniProt P03372)&item= Cc1cc(O)ccc1-c1cc(-c2ccccc2)cc(N(C)Cc2ccccc2)n1
2.58

----------
Biological target: GST-hERβ (ligand binding domain) (Homo sapiens, UniProt Q92731)
Sequence (Q92731 264-498 limits assumed): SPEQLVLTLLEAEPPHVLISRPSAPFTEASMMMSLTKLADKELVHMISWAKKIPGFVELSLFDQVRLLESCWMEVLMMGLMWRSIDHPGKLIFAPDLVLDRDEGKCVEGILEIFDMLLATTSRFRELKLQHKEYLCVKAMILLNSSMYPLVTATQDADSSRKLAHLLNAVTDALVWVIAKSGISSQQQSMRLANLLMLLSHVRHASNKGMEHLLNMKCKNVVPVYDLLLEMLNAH
For each record, write down the corresponding pKi.
One number for each entry, as −log10 of the molar value.

Smiles String	Observed
CCCN(Cc1ccccn1)c1cc(-c2ccccc2)cc(-c2ccc(O)cc2C)n1	6.48

State recorded pKi for all listed molecules.
1. Cc1cc(O)ccc1-c1cc(-c2ccccc2)cc(N(C)CCc2ccccc2)n1
2. Cc1cc(O)ccc1-c1cc(-c2ccccc2)cc(N2CCC(Cc3ccccc3)CC2)n1
3. Cc1cc(O)ccc1-c1cc(-c2ccccc2)cc(N(C)Cc2ccccc2)n1
4. Cc1cc(O)ccc1-c1cc(-c2ccccc2)cc(N(C)Cc2cccc3ccccc23)n1

[6.17, 6.96, 5.95, 5.85]
